log10 IC50: recorded values
System: A549
Experiment: Antitumor activity against human A549 cells after 72 hrs by sulforhodamine B assay
Format: functional, cell-based
Details: A549, 72 h
log10 IC50, nM

entry smiles: Cn1c2ccccc2c2cc(C(=O)NCCN3CCCC3)c3ncccc3c21
log10 IC50: 2.43
//
entry smiles: CN(C)CCCNC(=O)c1cc2c3ccccc3oc2c2cccnc12
log10 IC50: 3.35
//
entry smiles: Cn1c2ccccc2c2cc(C(=O)NCCCN3CCCC3)c3ncccc3c21
log10 IC50: 2.94

Query for A549: what log10 IC50 does the record show for `CN(C)CCCNC(=O)c1cc2c3ccccc3sc2c2cccnc12` ?
2.78

Query for A549: what log10 IC50 does the record show for `CN(C)CCNC(=O)c1cc2c3ccccc3oc2c2cccnc12` ?
3.28

Query for A549: what log10 IC50 does the record show for `CN(C)CCNC(=O)c1cc2c3ccncc3n(C)c2c2cccnc12` ?
2.11

Query for A549: what log10 IC50 does the record show for `CN(C)CCNC(=O)c1cc2c3cc(Cl)ccc3n(C)c2c2cccnc12` ?
2.41

Query for A549: what log10 IC50 does the record show for `CN(C)CCNC(=O)c1cc2c3ccccc3[nH]c2c2cccnc12` ?
2.84

Query for A549: what log10 IC50 does the record show for `CN1CCN(CCNC(=O)c2cc3c4ccccc4n(C)c3c3cccnc23)CC1` ?
2.95

Query for A549: what log10 IC50 does the record show for `CN(C)CCNC(=O)c1cc2c3cccnc3n(C)c2c2cccnc12` ?
2.20

Query for A549: what log10 IC50 does the record show for `CN(C)CCNC(=O)c1cc2c3cc(F)ccc3n(C)c2c2cccnc12` ?
2.23

Query for A549: what log10 IC50 does the record show for `Cn1c2ccccc2c2cc(C(=O)NCCN3CCNCC3)c3ncccc3c21` ?
2.89
